Molecular target: Potassium-transporting ATPase (Sus scrofa)
Sequence (P18434 whole entry): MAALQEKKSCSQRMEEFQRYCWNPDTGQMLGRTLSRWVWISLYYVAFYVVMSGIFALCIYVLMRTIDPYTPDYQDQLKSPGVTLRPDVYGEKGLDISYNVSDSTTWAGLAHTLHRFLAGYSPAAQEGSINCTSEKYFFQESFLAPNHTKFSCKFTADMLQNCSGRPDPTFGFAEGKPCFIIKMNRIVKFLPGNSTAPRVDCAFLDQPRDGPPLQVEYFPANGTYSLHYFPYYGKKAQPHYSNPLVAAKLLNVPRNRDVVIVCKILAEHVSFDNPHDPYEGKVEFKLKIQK
Sequence (P19156 whole entry): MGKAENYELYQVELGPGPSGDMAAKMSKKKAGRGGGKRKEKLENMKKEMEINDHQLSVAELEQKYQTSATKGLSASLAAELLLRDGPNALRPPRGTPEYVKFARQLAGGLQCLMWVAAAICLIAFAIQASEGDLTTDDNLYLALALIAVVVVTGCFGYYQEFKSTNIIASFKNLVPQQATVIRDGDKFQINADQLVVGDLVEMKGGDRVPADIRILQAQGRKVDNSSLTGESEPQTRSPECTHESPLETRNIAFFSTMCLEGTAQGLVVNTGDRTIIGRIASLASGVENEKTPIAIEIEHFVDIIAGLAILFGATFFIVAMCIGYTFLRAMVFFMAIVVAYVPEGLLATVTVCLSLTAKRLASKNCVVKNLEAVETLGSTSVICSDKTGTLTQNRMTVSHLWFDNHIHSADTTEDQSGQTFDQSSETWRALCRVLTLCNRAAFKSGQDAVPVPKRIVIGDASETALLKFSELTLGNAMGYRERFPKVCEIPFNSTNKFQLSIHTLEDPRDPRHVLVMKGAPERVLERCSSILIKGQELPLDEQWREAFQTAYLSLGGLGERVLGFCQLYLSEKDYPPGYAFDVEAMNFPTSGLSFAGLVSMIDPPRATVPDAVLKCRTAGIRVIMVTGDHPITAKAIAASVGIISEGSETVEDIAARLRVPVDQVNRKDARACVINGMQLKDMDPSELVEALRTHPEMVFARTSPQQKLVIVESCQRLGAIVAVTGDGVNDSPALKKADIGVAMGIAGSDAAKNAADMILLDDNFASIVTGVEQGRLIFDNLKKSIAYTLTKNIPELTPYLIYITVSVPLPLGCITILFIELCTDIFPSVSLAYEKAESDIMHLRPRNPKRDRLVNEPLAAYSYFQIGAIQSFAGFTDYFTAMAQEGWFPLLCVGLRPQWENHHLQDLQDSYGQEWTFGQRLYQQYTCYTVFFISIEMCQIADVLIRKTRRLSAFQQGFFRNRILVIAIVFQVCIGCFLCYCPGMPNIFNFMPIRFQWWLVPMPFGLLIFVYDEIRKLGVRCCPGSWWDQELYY
Assay: […] inhibit the activity of gastric H+/K+ ATPase
Assay type: tissue-based, Stomach
pIC50: −log10 of the molar value.
Each item that follows carries a reported pIC50.
property: pIC50

{"columns": ["smiles", "readout-number"],
 "data": [
  ["CCOC(=O)c1cnc2c(OC)cccc2c1Nc1ccccc1.Cl", 5.45],
  ["CNC(=O)c1cnc2c(OC)cccc2c1Nc1ccccc1C", 5.17],
  ["COc1cccc2c(Nc3ccccc3C)c(C(N)=O)cnc12", 4.82],
  ["COc1cccc2c(Nc3ccccc3C)c(CO)cnc12", 4.93]
]}

----------
Molecular target: Potassium-transporting ATPase (Rattus norvegicus) (UniProt P09626+P18598)
Test: Inhibition of pentagastrin stimulated gastric acid secretion in anesthetized rat at 10 umol/kg upon intravenous administration
Assay type: functional, organism-based
Conditions: Stomach
// label = rule met if inhibition is not less than 30%, otherwise rule not met

{"columns": ["smiles", "target-or-test-system", "class-name"],
 "data": [
  ["CCCC(=O)c1cnc2c(OC)cccc2c1Nc1ccccc1", "Potassium-transporting ATPase (Rattus norvegicus) (UniProt P09626+P18598)", "rule met"],
  ["CCOC(=O)c1cnc2ccccc2c1Nc1ccccc1C", "Potassium-transporting ATPase (Rattus norvegicus) (UniProt P09626+P18598)", "rule met"],
  ["CCCSc1cnc2ccccc2c1Nc1ccccc1C", "Potassium-transporting ATPase (Rattus norvegicus) (UniProt P09626+P18598)", "rule not met"],
  ["COc1cccc2c(Nc3ccccc3C)c(C(=O)NCc3ccccc3)cnc12", "Potassium-transporting ATPase (Rattus norvegicus) (UniProt P09626+P18598)", "rule not met"],
  ["COc1cccc2c(Nc3ccccc3C)c(C(=O)C3CCCCC3)cnc12", "Potassium-transporting ATPase (Rattus norvegicus) (UniProt P09626+P18598)", "rule met"]
]}
